Source listed as patent US20080267974A1.

biological target: tumor necrosis factor alpha (TNFα) (human, UniProt P01375 77-233); assay: affinity by IC50 ELISA (so named in paragraph 380)
Sequence (P01375 77-233 limits assumed): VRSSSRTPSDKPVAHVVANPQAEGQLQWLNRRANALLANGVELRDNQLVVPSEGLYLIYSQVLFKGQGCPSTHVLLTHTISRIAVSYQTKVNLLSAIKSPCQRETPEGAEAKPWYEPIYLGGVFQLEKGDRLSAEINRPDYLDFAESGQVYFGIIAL
Affinity values for the binders below.
# output: bare number, implied unit nM

MAb 1067 (antibody, V domains shown, IgG1/kappa, CHO; also called H1487/L332) VH: EVQLLESGGGLIQPGGSLRLSCAASGFTVSSNYMSWVRQAPGKGLEWVSVIYSGGRTYYADSVKGRFTISRDSSKNTLYLQMNSLRAEDTAVYYCARNYYGSTLDYWGQGTLVTVSS VL: EIVLTQSPVTLSVPPGERASLSCRASQNIYTAVAWYQQKPGQAPRLLIYGASTRATGIPARFSGGGSGTDYTLTISSLESEDFAVYHCQQWHSWPLTFGGGTKLEIK: 0.12
MAb 1042 (antibody, V domains shown, IgG1/kappa, CHO; also called H1482/L332) VH: EVQLLESGGGLIQPGGSLRLSCAASGFTVSSNYMSWVRQAPGKGLEWVSVIYSGGRTYYADSVKGRFTISRDSSKNTLYLQMNSLRAEDTAVYYCARNYYGSTFDYWGQGTLVTVSS VL: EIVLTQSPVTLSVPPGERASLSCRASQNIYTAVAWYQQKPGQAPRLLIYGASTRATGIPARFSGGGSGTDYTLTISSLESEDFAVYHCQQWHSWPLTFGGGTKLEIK: 0.07
MAb 1210 (antibody, V domains shown, IgG1/kappa, CHO; also called H1557/L332) VH: EVQLLESGGGLIQPGGSLRLSCAASGFTVSSNYMSWVRQAPGKGLEWVSVIYSGGRTYYADSVKGRFTISRDSSKNTLYLQMNSLRAEDTAVYYCARNYYGSTVDYWGQGTLVTVSS VL: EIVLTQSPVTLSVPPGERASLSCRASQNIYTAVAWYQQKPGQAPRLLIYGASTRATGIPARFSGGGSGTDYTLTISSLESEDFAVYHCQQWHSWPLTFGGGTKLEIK: 0.14

The record that follows has no Affinity shown yet.
**Query** Fill in: Affinity of MAb 1036 (antibody, V domains shown, IgG1/kappa, CHO; also called H1478/L332) VH: EVQLLESGGGLIQPGGSLRLSCAASGFTVSSNYMSWVRQAPGKGLEWVSVIYSGGRTYYADSVKGRFTISRDSSKNTLYLQMNSLRAEDTAVYYCARTYYGSTYDYWGQGTLVTVSS VL: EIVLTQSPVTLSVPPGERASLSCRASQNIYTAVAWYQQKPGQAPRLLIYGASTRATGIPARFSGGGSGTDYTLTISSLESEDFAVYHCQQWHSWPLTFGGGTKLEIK is ___
**Result** 0.18
